assay_target: MASP-2 CCP2-SP (Homo sapiens (Human), UniProt O00187)
Sequence (O00187 445-686): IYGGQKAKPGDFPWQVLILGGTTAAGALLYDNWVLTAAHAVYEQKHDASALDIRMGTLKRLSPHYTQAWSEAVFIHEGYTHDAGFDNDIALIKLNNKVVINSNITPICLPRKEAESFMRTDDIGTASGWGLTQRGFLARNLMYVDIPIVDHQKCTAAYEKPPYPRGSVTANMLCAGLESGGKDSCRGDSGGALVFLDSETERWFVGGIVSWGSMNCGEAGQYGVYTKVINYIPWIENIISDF
Sequence (O00187 364-432 partner): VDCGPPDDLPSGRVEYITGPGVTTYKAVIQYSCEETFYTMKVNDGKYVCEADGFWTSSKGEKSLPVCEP
method_summary: MASP-2 co-crystallization, X-ray crystallography and structure analysis (H-bonds, van der Waals contacts);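 on Ligand-pharmacophore element distance, pharmacophore element C5: distance from averaged pharmacophore element to bound ligand; missing value means element absent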
condition_context: Table A4-1; element C5
Structures can show the parent of a compound that is named as a salt.
The reader will find reported Ligand-pharmacophore element distance, pharmacophore element C5 values listed item by item below.
Write the value as a bare number.

molecule | assay_target | reported_result
O=c1oc(-c2ccccc2[N+](=O)[O-])nc2ccccc12 | MASP-2 CCP2-SP (Homo sapiens (Human), UniProt O00187) | 0

Summary: Cc1nc(N)ccc1CNC(=O)[C@H](C)NC(=O)[C@H]1C[C@H](Cc2ccc(-c3ccccc3)cc2)CN1 , MASP-2 CCP2-SP (Homo sapiens (Human), UniProt O00187), Ligand-pharmacophore element distance, pharmacophore element C5 = 0

Summary: C[C@H](NC(=O)[C@@H](CCc1ccccc1)NCCCc1ccc(O)cc1)C(=O)NCc1ccc(C(=N)N)cc1.Cl.Cl , MASP-2 CCP2-SP (Homo sapiens (Human), UniProt O00187), Ligand-pharmacophore element distance, pharmacophore element C5 = 0

Summary: C[C@H](NC(=O)[C@H](N)CCc1ccccc1)C(=O)NCc1ccc(N)nc1.Cl.Cl [1007_1] , MASP-2 CCP2-SP (Homo sapiens (Human), UniProt O00187), Ligand-pharmacophore element distance, pharmacophore element C5 = 0

Summary: Cc1nc(N)ccc1CNC(=O)[C@H](C)NC(=O)[C@H]1C[C@@H](c2ccccc2)CCN1CCC(=O)O [compound 1411, Trifluoroacetate salt] , MASP-2 CCP2-SP (Homo sapiens (Human), UniProt O00187), Ligand-pharmacophore element distance, pharmacophore element C5 = 0

Summary: C[C@H](NC(=O)[C@H]1C[C@@H](c2ccccc2)CCN1)C(=O)NCc1cc(Cl)ccc1O.Cl [1078_8] , MASP-2 CCP2-SP (Homo sapiens (Human), UniProt O00187), Ligand-pharmacophore element distance, pharmacophore element C5 = 0.78

Summary: Cc1cccc([C@H]2CN[C@@H](C(=O)N[C@@H](C)C(=O)NCc3ccc(N)nc3C)C2)c1 [compound 1257, Dihydrochloride] , MASP-2 CCP2-SP (Homo sapiens (Human), UniProt O00187), Ligand-pharmacophore element distance, pharmacophore element C5 = 0

Summary: Cc1nc(N)ccc1CNC(=O)[C@H](C)NC(=O)[C@H]1C[C@H](Cc2ccccc2-c2ccccc2)CN1 [compound 1373, Di-trifluoroacetate salt] , MASP-2 CCP2-SP (Homo sapiens (Human), UniProt O00187), Ligand-pharmacophore element distance, pharmacophore element C5 = 0

Summary: C[C@H](NC(=O)[C@H]1C[C@H](Cc2ccccc2)CN1)C(=O)NCc1cc(Cl)ccc1-n1cnnn1 [compound 1371, Hydrochloride] , MASP-2 CCP2-SP (Homo sapiens (Human), UniProt O00187), Ligand-pharmacophore element distance, pharmacophore element C5 = 0.48

Summary: N=C(N)c1ccc(CNC(=O)C(CF)NC(=O)[C@H](N)CCc2ccccc2)cc1 (some centres unmarked) [compound 1050, Dihydrochloride] , MASP-2 CCP2-SP (Homo sapiens (Human), UniProt O00187), Ligand-pharmacophore element distance, pharmacophore element C5 = 0

Summary: C[C@H](NC(=O)[C@H](N)CCCc1ccccc1)C(=O)NCc1ccc(C(=N)N)cc1.Cl.Cl [1042_3] , MASP-2 CCP2-SP (Homo sapiens (Human), UniProt O00187), Ligand-pharmacophore element distance, pharmacophore element C5 = 0

Summary: C[C@H](NC(=O)[C@H](N)CCc1ccccc1)C(=O)NCc1ccc(N)nc1.Cl.Cl [1007_2] , MASP-2 CCP2-SP (Homo sapiens (Human), UniProt O00187), Ligand-pharmacophore element distance, pharmacophore element C5 = 0

Summary: C[C@H](NC(=O)[C@H]1C[C@@H](c2ccccc2)CCN1)C(=O)NCc1cc(Cl)ccc1O.Cl [1078_16] , MASP-2 CCP2-SP (Homo sapiens (Human), UniProt O00187), Ligand-pharmacophore element distance, pharmacophore element C5 = 0.42

Summary: N=C(N)c1ccc(CNC(=O)[C@@H]2CCN2C(=O)[C@H](NCC(=O)O)C2Cc3ccccc3C2)cc1 , MASP-2 CCP2-SP (Homo sapiens (Human), UniProt O00187), Ligand-pharmacophore element distance, pharmacophore element C5 = 0

----------
The reader will find reported Pharmacophore protein distance to TRP_655 values listed item by item below.
assay_target: MASP-2 CCP2-SP (Homo sapiens (Human), UniProt O00187)
method_summary: MASP-2 co-crystallization, X-ray crystallography and structure analysis (H-bonds, van der Waals contacts)
condition_context: Table A8-6; pharmacophore elements C6, CA3, O3, H1; nearest protein atom in cell to the left
Write the value as a bare number.

compound | reported_result
C[C@H](NC(=O)[C@H]1Cc2c([nH]c3ccccc23)CN1)C(=O)NCc1ccc(C(=N)N)cc1.Cl.Cl [1097_1] | 3.24
C[C@H](NC(=O)[C@H]1C[C@H](c2ccccc2)CN1)C(=O)NCc1ccc2c(N)nccc2c1 | 3.50
C[C@H](NC(=O)[C@H](N)CCc1cccc(Cl)c1)C(=O)NCc1ccc(C(=N)N)cc1 | 3.69

# evaluate next
Reported Pharmacophore protein distance to TRP_655 ( C[C@H](NC(=O)[C@H]1C[C@@H](c2ccccc2)CCN1)C(=O)NCc1cc(Cl)ccc1O.Cl [1078_1] ) = 3.68

----------
assay_target: MASP-2 CCP2-SP (Homo sapiens (Human), UniProt O00187)
method_summary: MASP-2 co-crystallization, X-ray crystallography and structure analysis (H-bonds, van der Waals contacts)
condition_context: Table A1 (H-Bonds); ASP 627 OD1
reported_property: H-bond distance to MASP-2 ASP 627 atom OD1
Write the value as a bare number.

Answered cases to consult:
compound | assay_target | reported_result
N=C(N)c1ccc(CNC(=O)[C@@H]2CCN2C(=O)[C@H]2Cc3ccccc3CN2)cc1 [compound 1034] | MASP-2 CCP2-SP (Homo sapiens (Human), UniProt O00187) | 2.9
C[C@H](NC(=O)[C@H](N)CCCc1ccccc1)C(=O)NCc1ccc(C(=N)N)cc1 [compound 1042] | MASP-2 CCP2-SP (Homo sapiens (Human), UniProt O00187) | 3.32
C[C@H](NC(=O)[C@H](N)C1Cc2ccccc2C1)C(=O)NCc1ccc2nc(N)[nH]c2c1 [compound 1059] | MASP-2 CCP2-SP (Homo sapiens (Human), UniProt O00187) | 2.99

# evaluate next
Reported H-bond distance to MASP-2 ASP 627 atom OD1 ( C[C@H](NC(=O)[C@H]1C[C@@H](c2ccccc2)CCN1)C(=O)NCc1ccc(C(=N)N)cc1 (stereo in doubt) [compound 1065] ) = 3.14

----------
assay_target: MASP-2 CCP2-SP (Homo sapiens (Human), UniProt O00187)
method_summary: MASP-2 co-crystallization, X-ray crystallography and structure analysis (H-bonds, van der Waals contacts);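 on Ligand-pharmacophore element distance, pharmacophore element CA4: distance from averaged pharmacophore element to bound ligand; missing value means element absent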
condition_context: Table A4-1; element CA4
The reader will find reported Ligand-pharmacophore element distance, pharmacophore element CA4 values listed item by item below.
Write the value as a bare number.

molecule | assay_target | reported_result
Cc1nc(N)ccc1CNC(=O)[C@H](C)NC(=O)[C@H]1C[C@H](Cc2cccc(Cl)c2)CN1.Cl.Cl [1328_4] | MASP-2 CCP2-SP (Homo sapiens (Human), UniProt O00187) | 0
Cc1nc(N)ccc1CNC(=O)[C@H](C)NC(=O)[C@H]1C[C@H](Cc2ccccc2Br)CN1.O=C(O)C(F)(F)F.O=C(O)C(F)(F)F [1372_B] | MASP-2 CCP2-SP (Homo sapiens (Human), UniProt O00187) | 0
Cc1nc(N)ccc1CNC(=O)[C@H](C)NC(=O)[C@H]1C[C@H](Cc2cccc(Cl)c2)CN1.Cl.Cl [1328_2] | MASP-2 CCP2-SP (Homo sapiens (Human), UniProt O00187) | 0
C[C@H](NC(=O)[C@H]1C[C@@H](c2ccccc2)CCN1)C(=O)NCc1cc(Cl)ccc1O.Cl [1078_9] | MASP-2 CCP2-SP (Homo sapiens (Human), UniProt O00187) | 0
C[C@H](NC(=O)[C@H]1C[C@@H](c2ccccc2)CCN1)C(=O)NCc1cc(Cl)ccc1O.Cl [1078_8] | MASP-2 CCP2-SP (Homo sapiens (Human), UniProt O00187) | 0

Reported Ligand-pharmacophore element distance, pharmacophore element CA4 ( C[C@H](NC(=O)[C@H]1Cc2c([nH]c3ccccc23)CN1)C(=O)NCc1ccc(C(=N)N)cc1.Cl.Cl [1097_2] ) = 0

Reported Ligand-pharmacophore element distance, pharmacophore element CA4 ( C[C@H](NC(=O)[C@H](N)CCCc1ccccc1)C(=O)NCc1ccc(C(=N)N)cc1.Cl.Cl [1042_3] ) = 0

----------
The reader will find reported Pharmacophore protein distance to GLY_528 values listed item by item below.
assay_target: MASP-2 CCP2-SP (Homo sapiens (Human))
method_summary: MASP-2 co-crystallization, X-ray crystallography and structure analysis (H-bonds, van der Waals contacts)
condition_context: Table A8-6; nearest protein atom in cell to the left
Write the value as a bare number.

molecule | reported_result
C[C@H](NC(=O)[C@H]1C[C@@H](c2ccccc2)CN1)C(=O)NCc1ccc2c(N)nccc2c1.Cl.Cl [1089_B] | 3.59
C[C@H](NC(=O)[C@H](N)CCCc1ccccc1)C(=O)NCc1ccc(C(=N)N)cc1.Cl.Cl [1042_2] | 4.01

Summary: C[C@H](NC(=O)[C@H](N)CCc1ccccc1)C(=O)NCc1ccc(C(=N)N)cc1 , MASP-2 CCP2-SP (Homo sapiens (Human)), Pharmacophore protein distance to GLY_528 = 3.60

Summary: C[C@H](NC(=O)[C@H](N)C1Cc2ccccc2C1)C(=O)NCc1ccc2c(N)nccc2c1.Cl.Cl [1088_B] , MASP-2 CCP2-SP (Homo sapiens (Human)), Pharmacophore protein distance to GLY_528 = 3.66

Summary: C[C@H](NC(=O)[C@H]1C[C@@H](c2ccccc2)CCN1)C(=O)NCc1cc(Cl)ccc1O.Cl [1078_10] , MASP-2 CCP2-SP (Homo sapiens (Human)), Pharmacophore protein distance to GLY_528 = 3.40
